These entries and their values trace back to patent US10351546B2.

system: NL-RLuc virus; test: Inhibition of HIV replication (NL-RLuc luciferase reporter virus in MT-2 cells); format: cell-based; conditions: Human immunodeficiency virus 1, MT2, 120 h, read-out: EC50 μM
measure: EC50 (µM)
The answer is to be given in µM; state only the numeric part.

Let me check: `Cc1nc(C(=O)N(C)CC2CCCCC2)c(-c2ccc(OCCc3ccc(F)cc3)cc2)c(N2CCC(C)(C)CC2)c1[C@H](OC(C)(C)C)C(=O)O` , system NL-RLuc virus, measured EC50 is 0.004

Let me check: `Cc1nc(C#N)c(-c2ccc(OCCc3ccc(F)cc3)cc2)c(N2CCC(C)(C)CC2)c1[C@H](OC(C)(C)C)C(=O)O` , system NL-RLuc virus, measured EC50 is 0.008

Let me check: `Cc1nc(COCC2COC2)c([C@H](OC(C)(C)C)C(=O)O)c(N2CCC(C)(C)CC2)c1-c1ccc(OCCc2ccc(F)cc2)cc1` , system NL-RLuc virus, measured EC50 is 0.005

----------
system: NL-RLuc virus; assay: Inhibition of HIV replication (NL-RLuc luciferase reporter virus in MT-2 cells); format: cell-based; details: Human immunodeficiency virus 1, MT2, 120 h, read-out: EC50 μM
Quick rule for you: EC50 under 0.002 µM gets Condition met, anything else gets Condition not met.

Task: I wonder whether `Cc1cc(F)ccc1CN1CCc2cc(-c3c(CN4CCC5(CCC5)CC4)nc(C)c([C@H](OC(C)(C)C)C(=O)O)c3N3CCC(C)(C)CC3)ccc2C1` has EC50 below 0.002 µM. Can you tell?
Output: Condition met

Task: I wonder whether `CC[N+](CC)(CC)Cc1nc(C)c([C@H](OC(C)(C)C)C(=O)O)c(N2CCC(C)(C)CC2)c1-c1ccc2c(c1)CCN(Cc1ccc(F)cc1C)C2` has EC50 below 0.002 µM. Can you tell?
Output: Condition not met

Task: I wonder whether `Cc1nc(CO)c(-c2ccc3c(c2)CCN(c2ncnc4c2oc2ccccc24)C3)c(N2CCC(C)(C)CC2)c1[C@H](OC(C)(C)C)C(=O)O` has EC50 below 0.002 µM. Can you tell?
Output: Condition met

Task: I wonder whether `CO/C=C/c1nc(C)c([C@H](OC(C)(C)C)C(=O)O)c(N2CCC(C)(C)CC2)c1-c1ccc(OCCc2ccc(F)cc2)cc1` has EC50 below 0.002 µM. Can you tell?
Output: Condition not met

Task: I wonder whether `Cc1nc(CNC2COC2)c(-c2ccc(OCCc3ccc(F)cc3)cc2)c(N2CCC(C)(C)CC2)c1[C@H](OC(C)(C)C)C(=O)O` has EC50 below 0.002 µM. Can you tell?
Output: Condition not met

Task: I wonder whether `Cc1nc(COCCN2CCOCC2)c(-c2ccc(OCCc3ccc(F)cc3)cc2)c(N2CCC(C)(C)CC2)c1[C@H](OC(C)(C)C)C(=O)O` has EC50 below 0.002 µM. Can you tell?
Output: Condition met

Task: I wonder whether `CC1(C)CCN(c2c([C@H](OC(C)(C)C)C(=O)O)cnc(CCl)c2-c2ccc(OCCc3ccc(F)cc3)cc2)CC1` has EC50 below 0.002 µM. Can you tell?
Output: Condition not met
